# system.under.test: T1, BCMA on cells (293T cells transfected with BCMA; H929, MM.1S and U266 cell lines expressing BCMA) (human, UniProt Q02223 1-184)
# T1 construct: H929, MM.1S and U266 carry the native protein; also called B-cell Maturation Antigen; TNFRSF17
# T1 sequence: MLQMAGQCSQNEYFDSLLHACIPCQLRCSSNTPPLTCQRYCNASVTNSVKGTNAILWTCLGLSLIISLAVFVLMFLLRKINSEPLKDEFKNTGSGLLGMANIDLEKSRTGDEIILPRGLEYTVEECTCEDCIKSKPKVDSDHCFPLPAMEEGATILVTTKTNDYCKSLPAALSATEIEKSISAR
# procedure.summary: flow cytometry, H929 cells; also: test concentration or dose not given here
measurement.kind: Mean fluorescent intensity

{"columns": ["binder", "value.measured"],
 "data": [
  ["SCT-Aa08(h/h) (antibody, V domains shown, Full IgG format, chimeric: human IgG1 heavy chain constant region, human kappa light chain constant region) VH: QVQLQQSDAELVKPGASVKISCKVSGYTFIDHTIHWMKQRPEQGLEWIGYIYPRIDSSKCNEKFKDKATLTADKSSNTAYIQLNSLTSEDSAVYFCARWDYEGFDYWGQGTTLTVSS VL: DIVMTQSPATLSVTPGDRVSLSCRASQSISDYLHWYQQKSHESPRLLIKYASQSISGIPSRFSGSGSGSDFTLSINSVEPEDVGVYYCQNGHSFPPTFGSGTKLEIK", 454],
  ["SCT-Aa05(m/m) (antibody, V domains shown, Full IgG format: mouse IgG1 heavy chain constant region, mouse kappa light chain constant region) VH: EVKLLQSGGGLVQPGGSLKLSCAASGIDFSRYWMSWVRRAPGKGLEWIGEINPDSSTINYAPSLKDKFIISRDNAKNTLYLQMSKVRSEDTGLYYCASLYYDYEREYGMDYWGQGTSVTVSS VL: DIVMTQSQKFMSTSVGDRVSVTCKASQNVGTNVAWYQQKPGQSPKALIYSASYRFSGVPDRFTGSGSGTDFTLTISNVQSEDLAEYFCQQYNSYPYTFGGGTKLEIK", 2020]
]}

Reference source: patent US20210332145A1
